Parameter phosphorylation enrichment: see the listing below.
Target: EPHB2 (UniProt P29323)
Sequence (P29323 whole entry, looked up): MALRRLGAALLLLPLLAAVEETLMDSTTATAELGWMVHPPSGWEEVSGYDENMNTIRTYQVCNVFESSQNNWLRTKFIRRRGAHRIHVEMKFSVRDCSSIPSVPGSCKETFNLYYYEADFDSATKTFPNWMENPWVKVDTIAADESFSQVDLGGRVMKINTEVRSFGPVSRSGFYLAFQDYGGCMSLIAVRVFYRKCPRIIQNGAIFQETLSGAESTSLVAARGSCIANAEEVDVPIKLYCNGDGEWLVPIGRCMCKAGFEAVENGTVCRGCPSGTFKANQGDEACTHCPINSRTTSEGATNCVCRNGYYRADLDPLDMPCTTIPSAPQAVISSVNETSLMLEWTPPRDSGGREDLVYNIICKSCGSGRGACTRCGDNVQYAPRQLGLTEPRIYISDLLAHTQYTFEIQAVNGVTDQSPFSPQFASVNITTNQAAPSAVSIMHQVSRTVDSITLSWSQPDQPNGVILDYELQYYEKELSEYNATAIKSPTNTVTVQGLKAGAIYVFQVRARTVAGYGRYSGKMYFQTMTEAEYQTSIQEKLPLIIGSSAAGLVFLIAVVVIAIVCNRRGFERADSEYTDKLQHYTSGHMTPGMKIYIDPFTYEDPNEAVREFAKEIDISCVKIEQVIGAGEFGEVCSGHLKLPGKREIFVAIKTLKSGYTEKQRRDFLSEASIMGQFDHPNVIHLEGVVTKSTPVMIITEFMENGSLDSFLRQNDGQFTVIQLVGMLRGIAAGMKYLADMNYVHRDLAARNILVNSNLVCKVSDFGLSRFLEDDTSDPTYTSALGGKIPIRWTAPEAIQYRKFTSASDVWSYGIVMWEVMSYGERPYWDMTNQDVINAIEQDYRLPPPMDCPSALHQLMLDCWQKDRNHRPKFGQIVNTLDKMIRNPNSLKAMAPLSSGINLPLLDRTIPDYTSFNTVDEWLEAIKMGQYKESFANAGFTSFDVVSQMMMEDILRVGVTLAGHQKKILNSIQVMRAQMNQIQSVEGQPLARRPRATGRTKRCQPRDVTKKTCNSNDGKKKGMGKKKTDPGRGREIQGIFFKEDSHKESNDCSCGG
Assay: phosphorylation enrichment, bacterial display (enrichment ratio); higher = better substrate or ligand; peptides without Tyr show the background
When you answer, write just the number.

Answered cases to consult:
LRYDSYWSYCN [SLC20A2_Y433_S434W] : 9.36
AEPDIYQEKLS [USP54_Y1233] : 0.508
FKDGQYWIRGW [ACSF3_Y466_R471W] : 0.624
NHQYDYTFHWT [CSNK1A1_Y294_D297H] : 3.07
LKGIRYLTSGL [PIGA_Y82_R77L] : 0.913
YYHCTYKKRMI [CLEC12A_Y242] : 0.601
TNYRFYLRSLE [MTM1_Y71_L70F] : 0.532
PTEAQYRFIYM [PTPN11_Y511_Q506P] : 0.777

Which phosphorylation enrichment is reported with EPHB2 (UniProt P29323) for this entry: DYLEKYYKFGC [NNMT_Y24_S29C] ?
0.802

Moving on to the next sequence: YRQNVYIPGSN [PCDHGA1_Y895]
0.429

Further, for RCFVFYFSFLL [PTEN_Y177_R173C_YF] ?
0.434

Can you handle YADPYYDYEIE [ZC3H18_Y372] next?
1.94

Query NSFKFYMSDDI [ATRX_Y204_C200S_YF] next
0.552

Input DVCKNYTEAKD [ALB_Y343_A344T]
0.581

----------
Target: FGFR3 (UniProt P22607)
Sequence (P22607 whole entry, looked up): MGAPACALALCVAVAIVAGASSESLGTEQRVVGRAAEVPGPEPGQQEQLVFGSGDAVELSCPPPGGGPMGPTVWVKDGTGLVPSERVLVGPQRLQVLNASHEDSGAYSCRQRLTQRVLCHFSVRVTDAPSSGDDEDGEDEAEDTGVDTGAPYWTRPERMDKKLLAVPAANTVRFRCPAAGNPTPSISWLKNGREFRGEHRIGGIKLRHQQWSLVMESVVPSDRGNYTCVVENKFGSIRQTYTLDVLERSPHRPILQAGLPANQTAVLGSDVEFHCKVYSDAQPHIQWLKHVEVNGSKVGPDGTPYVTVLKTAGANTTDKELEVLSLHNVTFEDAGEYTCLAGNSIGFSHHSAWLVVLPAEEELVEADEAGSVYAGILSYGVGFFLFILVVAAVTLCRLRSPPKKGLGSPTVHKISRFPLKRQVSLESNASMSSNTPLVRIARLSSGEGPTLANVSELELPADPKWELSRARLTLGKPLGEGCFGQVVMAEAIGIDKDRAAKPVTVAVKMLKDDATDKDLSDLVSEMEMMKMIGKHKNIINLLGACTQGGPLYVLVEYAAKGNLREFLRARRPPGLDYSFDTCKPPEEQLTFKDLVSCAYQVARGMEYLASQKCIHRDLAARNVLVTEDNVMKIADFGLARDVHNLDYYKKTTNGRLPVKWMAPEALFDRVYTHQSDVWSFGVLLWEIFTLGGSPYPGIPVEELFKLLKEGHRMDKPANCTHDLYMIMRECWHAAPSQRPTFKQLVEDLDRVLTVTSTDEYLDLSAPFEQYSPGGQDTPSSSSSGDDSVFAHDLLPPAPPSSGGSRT
Assay: phosphorylation enrichment, bacterial display (enrichment ratio); higher = better substrate or ligand; peptides without Tyr show the background
Categorized via phosphorylation enrichment: low (below 0.9), moderate (0.9 to below 1), high (1 or more)

Illustrative cases are given below, each with its answer.
TDKLFYIFTPG [SLC27A4_Y243_S247P_YF] : high
LLNAIYLSAKR [SERPING1_Y294_W299R] : moderate
PDGREYIFVDP [PDGFRA_Y572_H570R_YF] : high

Band of DGQVNYEEFVQ [CALM1_Y139] ?
low

Subsequent entry: VPEANYTSDEE [STK33_Y439_D436E]
moderate

Another sequence: SLAARYYNWVC [FLT4_Y1230_S1235C]
high

Same lookup for VECHPYFTQPK [AKR1D1_Y199] , please.
low

Okay, and FDDIAHIRKTL [PIK3CA_Y1021_Y1021H] ?
low

Note, next up: MFNPFYGLFEF [NEDD4L_Y680_YF]
low

----------
Quick reference: SH2 binding enrichment of the listed items.
Target: c-Src SH2
Assay: SH2 binding enrichment of the phosphorylated peptide, bacterial display (enrichment ratio); higher = better substrate or ligand; peptides without Tyr show the background
Returns: the value as a bare number; no unit string appended.

SVICTYSPALN [TP53_Y126_T123I] : 0.448
ATHSRYRLNDF [CLDN14_Y233_G232R_YF] : 0.674
LINSVYGCSRQ [TMPRSS6_Y290_T287N] : 0.589
RPYVYYYSYLL [PTEN_Y177_R173P] : 0.539
KVMANYMYKAG [MAML2_Y513] : 0.849
YEREQYADRTR [RBM4_Y355_A359T] : 0.61
SIKDKYVTAVF [KCNH2_Y611_L615V_YF] : 0.538
FGLQAYTKVKT [ALDH2_Y502_E504K_YF] : 1.38

Which SH2 binding enrichment value is on record for ELETLYKKAVK [CC2D2A_Y381] ?
0.458

Thanks! And IRSGIYYKPES [L2HGDH_Y102_H98R] ?
0.697

Another sequence to check: FITVGYVDDTQ [HLA-B_Y51_S48T]
0.736

Now consider GSQERYFELVE [TSC2_Y407] .
2.07

Same lookup for PDSVDYPKKGF [CTSK_Y121_R122P_YF] , please.
0.531

----------
Biological target: c-Src SH2;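 note: peptide library displayed on the E. coli surface as eCPX fusions, selected cells deep-sequenced, score is each peptide's frequency after selection divided by its frequency in the input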
Assay: SH2 binding enrichment of the phosphorylated peptide, bacterial display (enrichment ratio); higher = better substrate or ligand; peptides without Tyr show the background
measured-quantity: SH2 binding enrichment
Give the figure only, with no unit attached.

Completed entries (count: 5):
LRVGFYESDVM [A2M_Y708] : 4.14
DLVSEYQQYQD [TUBB3_Y422] : 0.597
IKEFKYGIEEH [GJA1_Y137_K134E] : 0.457
YSNVLYRPRGA [TMIGD2_Y197] : 1.05
HFPDVYAWEQL [ALX3_Y181_R183W_YF] : 0.809

Quick one: SH2 binding enrichment for WLFFRYLAIGC [ATP2A2_Y836] ?
0.36

Let us now turn to MFNPFYGLFEF [NEDD4L_Y680_YF]
1.17

Consider next the sequence GLGGGYGGASG [KRT8_Y54] in the same way.
0.369

Now give it for TRGLEYIVPLM [CLCN4_Y548_G544R] too.
0.825

Follow-up item: RGFDTYFGFLL [ARSB_Y165_YF]
0.578

What would you report for RKIMGYSIRTI [IDS_Y490_I485R] ?
0.654

----------
Target: EPHB2 (UniProt P29323)
Test: phosphorylation enrichment, bacterial display (enrichment ratio); higher = better substrate or ligand; peptides without Tyr show the background
Response key: yes (1) means phosphorylation enrichment >= 0.6; no (0) means phosphorylation enrichment < 0.6.

AFLQTYSHEVS [PCDHGA5_Y753] : yes (1)
FAKTQYPDVFA [CRX_Y63_YF] : no (0)
GSCQEYTGAPF [NAXD_Y85_G81S_YF] : no (0)
TQPSPYAVYLF [RPGRIP1_Y823_R827L] : yes (1)
QSSALYEDRFL [ASS1_Y83_YF] : yes (1)
VEDPEYAVTQL [STOML2_Y124] : no (0)
QGCGIYKDFFR [PLA2G2D_Y82_S80G_YF] : yes (1)
VFLGAYDRFLP [SLC22A5_Y486_YF] : yes (1)

Is phosphorylation enrichment for NPIGLYSAETL [LDB3_Y202] at or above 0.6?
yes (1)

Please do the same for THPFLYLSLEI [MLH1_Y293] as well.
yes (1)

Request: EPFKVYRIVPE [IRF8_Y110_YF]
no (0)

Can you check RLLRGYDQYAY [HLA-B_Y137_H137Y] next?
yes (1)

Another sequence to check: KQINDYVEKGT [SERPINA1_Y184]
no (0)

// query: AKKVFYMIETR [SHH_Y253_V254M]
yes (1)

----------
Molecular target: Fyn (UniProt P06241)
Sequence (P06241 whole entry, looked up): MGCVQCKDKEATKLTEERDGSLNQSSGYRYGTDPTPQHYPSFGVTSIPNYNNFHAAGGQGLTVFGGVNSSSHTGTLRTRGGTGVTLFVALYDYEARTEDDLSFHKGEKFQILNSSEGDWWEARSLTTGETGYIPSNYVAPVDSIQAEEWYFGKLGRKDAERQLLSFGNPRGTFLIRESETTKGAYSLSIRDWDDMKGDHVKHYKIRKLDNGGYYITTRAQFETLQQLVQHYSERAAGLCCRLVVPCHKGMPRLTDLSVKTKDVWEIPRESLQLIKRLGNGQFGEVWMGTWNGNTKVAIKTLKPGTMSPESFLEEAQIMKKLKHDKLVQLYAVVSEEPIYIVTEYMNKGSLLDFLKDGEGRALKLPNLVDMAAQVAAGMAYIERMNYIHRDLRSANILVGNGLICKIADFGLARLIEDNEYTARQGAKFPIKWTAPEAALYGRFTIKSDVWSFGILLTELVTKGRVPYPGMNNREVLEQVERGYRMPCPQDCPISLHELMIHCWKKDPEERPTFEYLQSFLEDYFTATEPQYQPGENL
Assay: phosphorylation enrichment, bacterial display (enrichment ratio); higher = better substrate or ligand; peptides without Tyr show the background
Decision: phosphorylation enrichment compared against 0.5; not below it gives Yes, below it gives No.

NDFGNYSNQSS [HNRNPA1_Y318_N319S] : No

Evaluate ELETLYKKAVK [CC2D2A_Y381] : phosphorylation enrichment at minimum 0.5?
No

Item: AEPDIYQEKLS [USP54_Y1233]
Yes

And what about the sequence NTTIHYNYMCN [TP53_Y234_C229N] ?
Yes

What about CTTSHYNFMCN [TP53_Y234_I232S_YF] ?
No

Another sequence to look at: EERNPYFSSAR [MCCC2_Y520_G517R_YF]
No

Now the sequence MKTISYETLIA [DOCK10_Y1350]
No

----------
Listing: phosphorylation enrichment of selected sequences
Target: EPHB1 (UniProt P54762)
Sequence (P54762 whole entry, looked up): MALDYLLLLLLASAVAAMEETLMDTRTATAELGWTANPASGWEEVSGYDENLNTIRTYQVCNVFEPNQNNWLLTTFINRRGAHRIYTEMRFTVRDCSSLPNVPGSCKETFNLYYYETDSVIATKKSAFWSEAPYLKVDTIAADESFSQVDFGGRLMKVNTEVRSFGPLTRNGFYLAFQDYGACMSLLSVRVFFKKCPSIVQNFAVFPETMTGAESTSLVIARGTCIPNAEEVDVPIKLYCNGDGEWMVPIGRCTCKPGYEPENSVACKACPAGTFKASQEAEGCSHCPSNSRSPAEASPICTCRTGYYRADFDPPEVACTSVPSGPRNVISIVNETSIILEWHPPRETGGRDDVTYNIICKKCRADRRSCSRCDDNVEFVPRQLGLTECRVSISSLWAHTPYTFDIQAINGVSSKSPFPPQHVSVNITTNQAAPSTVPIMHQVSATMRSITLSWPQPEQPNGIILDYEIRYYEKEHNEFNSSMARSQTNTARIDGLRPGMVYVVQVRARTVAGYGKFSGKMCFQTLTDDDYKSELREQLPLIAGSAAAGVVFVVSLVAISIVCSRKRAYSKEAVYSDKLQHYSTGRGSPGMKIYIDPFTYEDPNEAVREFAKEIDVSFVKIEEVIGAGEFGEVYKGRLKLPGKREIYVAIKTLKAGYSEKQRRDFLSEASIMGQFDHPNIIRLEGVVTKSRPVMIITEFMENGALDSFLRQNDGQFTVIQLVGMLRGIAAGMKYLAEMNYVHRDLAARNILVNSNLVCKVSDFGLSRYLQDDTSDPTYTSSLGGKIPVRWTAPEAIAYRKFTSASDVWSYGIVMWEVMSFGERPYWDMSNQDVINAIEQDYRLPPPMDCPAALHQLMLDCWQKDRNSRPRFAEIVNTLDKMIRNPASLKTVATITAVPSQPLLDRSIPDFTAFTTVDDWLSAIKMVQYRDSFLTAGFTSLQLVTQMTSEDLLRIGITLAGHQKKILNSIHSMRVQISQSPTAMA
Assay: phosphorylation enrichment, bacterial display (enrichment ratio); higher = better substrate or ligand; peptides without Tyr show the background
Number only, no unit.

Example entries begin here.
TTGGFYSYGGG [KRT24_Y120_A115T] : 1.18
MFNPCYGLFEY [NEDD4L_Y680_Y679C] : 0.739

Looking for the measured phosphorylation enrichment of CLAKMYYSAVD [CP_Y539] , can you help?
1.02

// same read-out, input: DENWFYTQAAS [RPS19_Y54_R56Q]
0.49

And then ASELGYVFQAI [UROD_Y133] , what is it?
0.471

----------
Recorded phosphorylation enrichment by entry
Molecular target: FGFR3 (UniProt P22607)
Test: phosphorylation enrichment, bacterial display (enrichment ratio); higher = better substrate or ligand; peptides without Tyr show the background

Previously resolved entries follow.
SIKDKYVTVLY [KCNH2_Y611_A614V] : 0.733
NTVDYYDLYGG [PTPN11_Y63_G60V] : 13.1
MDDKEYYSVHN [MET_Y1234_Y1230D] : 1.88
TGEKLYQHKEF [ZNF283_Y627_R629H] : 0.528
CTIIHYNFMCN [TP53_Y234_T231I_YF] : 0.993
LSVMSYDLGMF [GBA3_Y174] : 1.13
GLGGGYGGASG [KRT8_Y54] : 0.367
NLTLKYPIEHG [ACTA1_Y71_I66N] : 0.549
DENWFYTQAAS [RPS19_Y54_R56Q] : 0.682
KSPDSYQKILP [ATM_Y1415_L1420P] : 0.429

What value of phosphorylation enrichment has been reported for the following sequence? FKIFRYTLNDN [FN1_Y1975_L1974R_YF]
0.589

Record: GSRGKYSSGFH [ATM_Y332_R337H]
0.605

Same again, this time with RYVTRYIYNRE [HLA-DQB1_Y62]
0.793

Try this sequence too: FIAVGYVDDTQ [HLA-A_Y51]
0.553

Okay, and NPQKSYFICLY [WAS_Y83_R86C] ?
0.975

Let us now turn to PELIDYGKLRK [ACTN1_Y193]
0.544

What would you report for FSPGSYERETF [NF1_Y2192] ?
0.535

Would you mind doing YSNVLYRPRGP [TMIGD2_Y197_A202P] as well?
0.525
